Catalogue of MIC values
tested on: Escherichia coli

[[record]]
molecule = "CC(C)C[C@H](NC(=O)[C@H](CCCCN)NC(=O)[C@H](Cc1ccccc1)NC(=O)[C@@H](NC(=O)[C@@H](NC(=O)CNC(=O)[C@H](CC(C)C)NC(=O)[C@@H](N)Cc1ccccc1)C(C)C)C(C)C)C(=O)N[C@@H](C)C(=O)N[C@@H](CO)C(=O)N[C@@H](CCCCN)C(=O)N[C@H](C(=O)N[C@@H](Cc1ccccc1)C(=O)NCC(=O)N[C@@H](C)C(=O)N[C@H](C(=O)N[C@@H](Cc1ccccc1)C(=O)NCC(=O)N[C@@H](CCCCN)C(=O)N[C@H](C(=O)O)C(C)C)C(C)C)C(C)C [FLGVVFKLASKVFGAVFGKV]"
value_reported = "> 121 µM"


Escherichia coli / MIC / CC[C@H](C)[C@H](NC(=O)[C@H](C)NC(=O)CNC(=O)[C@H](Cc1ccccc1)NC(=O)[C@@H](NC(=O)[C@H](CO)NC(=O)[C@@H]1CCCN1C(=O)[C@@H](NC(=O)[C@@H](NC(=O)[C@H](CCCCN)NC(=O)[C@H](CO)NC(=O)[C@H](C)NC(=O)[C@H](CC(C)C)NC(=O)[C@H](CO)NC(=O)CNC(=O)[C@@H](NC(=O)[C@@H](N)Cc1ccccc1)C(C)C)C(C)C)C(C)C)C(C)C)C(=O)N[C@@H](CCCCN)C(=O)N[C@H](C(=O)N[C@@H](CCCCN)C(=O)O)[C@@H](C)O [FVGSLASKVVPSVFGAIKTK] : value? > 126 µM

* * *

system: Pseudomonas aeruginosa ATCC 9027; assay: ≥ marks a high value that may be exact or a test limit, other limits are often not marked, values filed in µg/mL are converted to µM
Measurement type: MIC

[[record]]
structure_string = "CC[C@H](C)[C@H](NC(=O)[C@H](CCCCN)NC(=O)[C@H](CCCCN)NC(=O)[C@@H](NC(=O)[C@@H](NC(=O)[C@H](CC(=O)O)NC(=O)[C@H](Cc1ccccc1)NC(=O)[C@H](CC(C)C)NC(=O)CN)[C@@H](C)CC)[C@@H](C)CC)C(=O)N[C@@H](C)C(=O)N[C@@H](CCC(=O)O)C(=O)N[C@@H](C)C(=O)N[C@@H](Cc1ccccc1)C(N)=O"
assayed_target = "Pseudomonas aeruginosa ATCC 9027"
value_reported = "> 350 µM"


Returns the measured MIC for the input compound. Input: NCC(=O)N[C@@H](CCCN=C(N)N)C(=O)N[C@@H](Cc1c[nH]c2ccccc12)C(=O)N[C@@H](Cc1c[nH]c2ccccc12)C(=O)N[C@@H](Cc1c[nH]c2ccccc12)C(=O)N[C@@H](CCCN=C(N)N)C(=O)NCC(N)=O > 128 µM

* * *

A collection of molecules and their measured MIC
test system: Staphylococcus aureus
The answer is to be given in µM; state only the numeric part.

Worked set:
[[record]]
structure_string = "CC[C@H](C)[C@H](NC(=O)[C@H](Cc1cnc[nH]1)NC(=O)[C@H](CCCCN)NC(=O)[C@H](CC(C)C)NC(=O)[C@H](CC(C)C)NC(=O)[C@@H](NC(=O)[C@H](CCSC)NC(=O)[C@H](Cc1c[nH]c2ccccc12)NC(=O)[C@H](CCCCN)NC(=O)CN)[C@@H](C)O)C(=O)N[C@@H](CC(C)C)C(=O)N[C@@H](CCCCN)C(N)=O"
endpoint_unit = "µM"
value_reported = 5.3

[[record]]
structure_string = "CC(C)C[C@H](NC(=O)[C@H](CCCCN)NC(=O)[C@H](CCCCN)NC(=O)[C@H](Cc1ccccc1)NC(=O)[C@H](Cc1ccccc1)NC(=O)[C@H](CCCCN)NC(=O)[C@H](CCCCN)NC(=O)[C@@H](N)Cc1ccccc1)C(=O)N[C@@H](CCCCN)C(=O)N[C@@H](CC(N)=O)C(=O)N[C@@H](CO)C(=O)N[C@H](C(=O)N[C@@H](CCCCN)C(=O)N[C@@H](CCCCN)C(=O)N[C@@H](CCCN=C(N)N)C(=O)O)C(C)C"
endpoint_unit = "µM"
value_reported = 3.63

[[record]]
structure_string = "CC(C)C[C@H](NC(=O)[C@H](CCCCN)NC(=O)[C@H](Cc1ccccc1)NC(=O)[C@@H](NC(=O)[C@H](CCCCN)NC(=O)CNC(=O)[C@H](CC(C)C)NC(=O)[C@@H](N)Cc1ccccc1)C(C)C)C(=O)N[C@@H](C)C(=O)N[C@@H](CO)C(=O)N[C@@H](CCCCN)C(=O)N[C@H](C(=O)N[C@@H](Cc1ccccc1)C(=O)N1CCC[C@H]1C(=O)N[C@@H](CCCCN)C(=O)N[C@H](C(=O)N[C@@H](Cc1ccccc1)C(=O)NCC(=O)N[C@@H](CCCCN)C(=O)N[C@H](C(=O)O)C(C)C)C(C)C)C(C)C"
endpoint_unit = "µM"
value_reported = 28.6


Lab note: next molecule to report on.
For the record C[C@@H](O)[C@H](NC(=O)[C@H](CCCN=C(N)N)NC(=O)[C@H](Cc1c[nH]c2ccccc12)NC(=O)[C@H](CCCN=C(N)N)NC(=O)[C@@H](NC(=O)[C@H](CCCN=C(N)N)NC(=O)[C@H](Cc1c[nH]c2ccccc12)NC(=O)[C@H](CCCN=C(N)N)NC(=O)[C@@H](NC(=O)[C@H](CCCN=C(N)N)NC(=O)[C@@H](N)Cc1c[nH]c2ccccc12)[C@@H](C)O)[C@@H](C)O)C(=O)N[C@@H](CCCN=C(N)N)C(N)=O , what value of MIC is listed for Staphylococcus aureus? 4
